Let's look at some compounds and their measured inhibition at 50 µM.
tested on: Plasmodium berghei (Pb-Luc) exoerythrocytic-stage parasites; assay: microbe, parasite or virus in culture; details: read-out: Inhibition% @ 50 uM rep2
propertyLabel: inhibition at 50 µM (%)

* CN(C)c1ccc(C=Cc2nc(=O)c3ccccc3o2)cc1 [MMV006309] | 105
* CN(C)c1ccc(C(O)(c2ccc(N(C)C)cc2)c2ccc(N(C)C)cc2)cc1 [MMV665941] | 104
* O=C(NCc1ccco1)C1CCN(S(=O)(=O)c2ccc(Br)cc2)CC1 [MMV007430] | 105
* Cc1ccc(Nc2nc(-c3ccccn3)cs2)cc1 [MMV007907] | 106
* COc1nc(Nc2ccc(C(C)C)cc2)nc(OC)n1 [MMV007808] | 96
* CCCCOc1ccc(C(=O)Nc2cc(C)on2)cc1 [MMV007906] | 98
* CC(C)(C)c1ccc(O)c(CNC2CCCCC2)c1 [MMV665785] | 102
* CN(C)CCNc1cc(-c2ccccc2)nc2ccccc12 [MMV006704] | 97
* COc1ccc2c(c1)C1(Nc3ccccc3-c3nc4ccccc4n31)C(=O)N2 (centres unmarked) [MMV396749] | 102
* CCOc1ccc(-n2cc(-c3ccccc3)c3c(SCc4cc(C)ccc4C)ncnc32)cc1 [MMV085471] | -7
* FC(F)(F)c1cccc(CNC2CCN(CCc3ccccc3)CC2)c1 [MMV665979] | 99
* CCOc1cccc2sc(N(Cc3cccnc3)C(=O)C3CCCCC3)nc12 [MMV001230] | 103
* COc1cccc(C(=O)NC(c2ccc(C)cc2)c2cc(Cl)c3cccnc3c2O)c1 (centres unmarked) [MMV665969] | 104
* CCOc1ccc(C2N(C)c3ccccc3N2C)cc1 [MMV075490] | 102
* CCOc1ccc(-c2nonc2NC(=O)c2cccc(C)c2)cc1OCC [MMV665805] | 72
* CCCCCCn1c(=N)n(CC(O)COc2cccc(C)c2)c2ccccc21 (centres unmarked) [MMV000445] | 103
* CCOc1c(Cl)cc(CNC(C)C(O)c2ccccc2)cc1OC (centres unmarked) [MMV665857] | 103
* CCN(CC)c1ccc(NC(=O)c2cccs2)cc1 [MMV009060] | 102
* COc1ccccc1CNC(=O)C1c2ccccc2C(=O)N(CC(C)C)C1c1cccs1 (centres unmarked) [MMV000648] | 105
* COc1ccc(-c2nc(N3CCN(C(=O)C4CCCCC4)CC3)c3c4c(sc3n2)CCCC4)cc1 [MMV396594] | 98
* CCCCCCc1cc2cc(-c3nc4ccccc4[nH]3)c(=Nc3ccccc3C)oc2cc1O [MMV666597] | 103
* CC(C)CNC(=O)c1c(N)n(CCc2ccccc2F)c2nc3ccccc3nc12 [MMV396744] | 103
* COc1ccc(C2NCCc3c2[nH]c2ccccc32)cc1CN1CCN(c2ccc(F)cc2)CC1 (centres unmarked) [MMV019690] | 103
